Assign IC50 (pSTAT3) to each entry below.
- TESTED SYSTEM: T1, human IL-23R endogenously expressed on DB cells (human, UniProt Q5VWK5 24-629)
- T1 sequence (looked up): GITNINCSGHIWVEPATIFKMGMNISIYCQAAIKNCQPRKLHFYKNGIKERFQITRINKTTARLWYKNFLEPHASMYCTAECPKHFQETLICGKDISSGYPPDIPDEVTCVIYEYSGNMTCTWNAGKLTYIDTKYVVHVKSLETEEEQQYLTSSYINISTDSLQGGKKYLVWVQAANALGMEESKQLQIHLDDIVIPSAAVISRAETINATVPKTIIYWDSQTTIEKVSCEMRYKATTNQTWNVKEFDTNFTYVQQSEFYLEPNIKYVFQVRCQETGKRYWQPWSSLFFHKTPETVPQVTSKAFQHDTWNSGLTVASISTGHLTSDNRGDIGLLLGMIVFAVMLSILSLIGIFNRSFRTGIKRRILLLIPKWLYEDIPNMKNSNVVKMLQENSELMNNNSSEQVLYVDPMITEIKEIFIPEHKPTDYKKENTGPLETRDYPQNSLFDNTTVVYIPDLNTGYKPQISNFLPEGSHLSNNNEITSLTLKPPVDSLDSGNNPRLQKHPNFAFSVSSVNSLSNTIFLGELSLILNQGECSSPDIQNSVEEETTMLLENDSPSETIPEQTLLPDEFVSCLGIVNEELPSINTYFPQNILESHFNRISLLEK
- ASSAY DETAILS: cell-based or functional assay
*1 amine or outer side, *2 acyl side, *3 side chain or, on linkers, in order; H or OH if unused. Bridges are numbered along the chain shown (N, C = ends). [ ]: non-standard residue; d: D form. 4‑Aminomethyl‑phenylacetyl = 4-aminomethyl-phenylacetyl unit, its amine closes the lactam, O=C(Cc1ccc(CN[*:1])cc1)[*:2]; 2Nal = N[C@@H](Cc1ccc2ccccc2c1)C(=O)O; AEF = NCCOc1ccc(C[C@H](N)C(=O)O)cc1; 3Pal = N[C@@H](Cc1cccnc1)C(=O)O; αMeL = CC(C)C[C@](C)(N)C(=O)O; Dab = NCC[C@H](N)C(=O)O; Sar = CNCC(=O)O
Give your result in pM as a bare value.

Task: # return recorded IC50 (pSTAT3) for input [4‑Aminomethyl‑phenylacetyl]SEWQ[Dab][AEF][2Nal][αMeL]E[Dab][3Pal][Sar]-NH2 (lactam N-10, 3-6; SMILES CC(C)C[C@]1(C)NC(=O)[C@H](Cc2ccc3ccccc3c2)NC(=O)[C@H](Cc2ccc(OCCN)cc2)NC(=O)[C@@H]2CCNC(=O)CC[C@H](NC(=O)[C@H](CO)NC(=O)Cc3ccc(cc3)CNC(=O)CC[C@@H](C(=O)N[C@@H](CCN)C(=O)N[C@@H](Cc3cccnc3)C(=O)N(C)CC(N)=O)NC1=O)C(=O)N[C@@H](Cc1c[nH]c3ccccc13)C(=O)N[C@@H](CCC(N)=O)C(=O)N2) [Compound 9]
Result: 25

Task: # return recorded IC50 (pSTAT3) for input [4‑Aminomethyl‑phenylacetyl]SEWQ[Dab][AEF][2Nal][αMeL]E[Dab][3Pal]-NH2 (lactam N-10, 3-6; SMILES CC(C)C[C@]1(C)NC(=O)[C@H](Cc2ccc3ccccc3c2)NC(=O)[C@H](Cc2ccc(OCCN)cc2)NC(=O)[C@@H]2CCNC(=O)CC[C@H](NC(=O)[C@H](CO)NC(=O)Cc3ccc(cc3)CNC(=O)CC[C@@H](C(=O)N[C@@H](CCN)C(=O)N[C@@H](Cc3cccnc3)C(N)=O)NC1=O)C(=O)N[C@@H](Cc1c[nH]c3ccccc13)C(=O)N[C@@H](CCC(N)=O)C(=O)N2) [Ref 122]
Result: 28

Task: # return recorded IC50 (pSTAT3) for input [4‑Aminomethyl‑phenylacetyl]SEWQ[Dab][AEF][2Nal][αMeL]E[Dab][3Pal][dH]-NH2 (lactam N-10, 3-6; SMILES CC(C)C[C@]1(C)NC(=O)[C@H](Cc2ccc3ccccc3c2)NC(=O)[C@H](Cc2ccc(OCCN)cc2)NC(=O)[C@@H]2CCNC(=O)CC[C@H](NC(=O)[C@H](CO)NC(=O)Cc3ccc(cc3)CNC(=O)CC[C@@H](C(=O)N[C@@H](CCN)C(=O)N[C@@H](Cc3cccnc3)C(=O)N[C@H](Cc3c[nH]cn3)C(N)=O)NC1=O)C(=O)N[C@@H](Cc1c[nH]c3ccccc13)C(=O)N[C@@H](CCC(N)=O)C(=O)N2) [Compound 10]
Result: 38
